# assay target: WHSC1 941–1240 (Homo sapiens, UniProt O96028)
# Sequence (O96028 941-1240): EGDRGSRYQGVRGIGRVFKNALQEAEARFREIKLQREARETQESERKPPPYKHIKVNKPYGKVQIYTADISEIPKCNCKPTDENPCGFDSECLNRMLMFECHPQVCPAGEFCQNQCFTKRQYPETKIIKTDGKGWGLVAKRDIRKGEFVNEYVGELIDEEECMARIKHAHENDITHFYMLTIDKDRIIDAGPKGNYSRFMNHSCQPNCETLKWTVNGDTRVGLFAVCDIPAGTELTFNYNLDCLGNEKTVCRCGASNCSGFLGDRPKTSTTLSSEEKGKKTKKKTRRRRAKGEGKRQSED
Square brackets hold non-standard residues; d marks the D form. Peptide text beside a SMILES is read from it. Nle = CCCC[C@H](N)C(=O)O
Entries and their IC50 values follow.
Returns: string containing the numeric result and its unit.

Previously resolved entries follow.
{"compound": "CCCC[C@H](NC(=O)[C@@H](NC(=O)CNC(=O)CNC(C)=O)C(C)C)C(=O)N[C@@H](CCCNC(=N)N)C(N)=O [PTD4] (Ac-GGV[Nle]R-NH2)", "IC50": "180 µM"}
{"compound": "CCCC[C@H](NC(=O)[C@@H](NC(=O)CNC(=O)CNC(=O)[C@@H](NC(=O)[C@H](C)NC(=O)[C@@H]1CCCN1C(=O)[C@H](C)NC(=O)[C@H](CO)NC(C)=O)[C@@H](C)O)C(C)C)C(=O)N[C@@H](CCCCN)C(=O)N1CCC[C@H]1C(=O)N[C@@H](Cc1c[nH]cn1)C(=O)N[C@@H](CCCNC(=N)N)C(=O)N[C@@H](Cc1ccc(O)cc1)C(=O)N[C@@H](CCCNC(=N)N)C(N)=O", "IC50": "13 µM"}

Using the record for CCCC[C@H](NC(=O)[C@@H](NC(=O)CNC(C)=O)C(C)C)C(=O)N[C@@H](CCCCN)C(=O)N1CCC[C@H]1C(N)=O [PTD9] (Ac-GV[Nle]KP-NH2) , report its IC50.
130 µM

Again, but for CCCC[C@H](NC(=O)[C@@H](NC(=O)CNC(=O)CNC(=O)[C@H](CCCNC(=N)N)NC(C)=O)C(C)C)C(N)=O [PTD5] (Ac-RGGV[Nle]-NH2)
190 µM

----------
# assay target: SMYD2 (Homo sapiens, UniProt Q9NRG4)
# Sequence (Q9NRG4 whole entry, species assumed): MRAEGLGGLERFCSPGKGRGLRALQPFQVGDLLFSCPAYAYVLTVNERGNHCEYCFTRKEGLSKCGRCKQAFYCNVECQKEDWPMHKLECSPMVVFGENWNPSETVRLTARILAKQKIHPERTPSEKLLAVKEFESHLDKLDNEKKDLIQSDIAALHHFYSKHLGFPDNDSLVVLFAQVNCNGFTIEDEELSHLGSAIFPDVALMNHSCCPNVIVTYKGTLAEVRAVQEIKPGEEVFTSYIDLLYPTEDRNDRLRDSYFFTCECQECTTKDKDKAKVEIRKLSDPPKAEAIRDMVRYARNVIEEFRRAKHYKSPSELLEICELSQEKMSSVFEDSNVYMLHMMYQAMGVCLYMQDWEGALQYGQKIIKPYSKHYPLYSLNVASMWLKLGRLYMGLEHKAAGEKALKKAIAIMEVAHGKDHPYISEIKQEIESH
pIC50: −log10 of the molar value.
endpoint: pIC50

May I ask what pIC50 has been recorded for CCCC[C@H](NC(=O)[C@@H](NC(=O)CNC(C)=O)C(C)C)C(=O)N[C@@H](CCCNC(=N)N)C(=O)N[C@H](C(N)=O)[C@@H](C)CC ?
< 3.70

----------
# assay target: WHSC1L1 1054–1285 (Homo sapiens)
# Sequence (Q9BZ95 1054-1285): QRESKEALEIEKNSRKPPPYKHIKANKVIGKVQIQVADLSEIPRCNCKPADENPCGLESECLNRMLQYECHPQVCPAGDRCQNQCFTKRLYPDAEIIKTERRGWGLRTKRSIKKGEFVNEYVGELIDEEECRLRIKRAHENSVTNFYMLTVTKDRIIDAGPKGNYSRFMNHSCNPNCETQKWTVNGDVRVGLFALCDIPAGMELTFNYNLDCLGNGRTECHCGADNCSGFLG
Square brackets hold non-standard residues; d marks the D form. Peptide text beside a SMILES is read from it. Nle = CCCC[C@H](N)C(=O)O
endpoint: pIC50
Please treat pIC50 as minus the base-10 logarithm of the molar concentration.

Sample CCCC[C@H](NC(=O)[C@@H](NC(C)=O)C(C)C)C(=O)N[C@@H](CCCNC(=N)N)C(=O)N[C@H](C(=O)N[C@@H](CO)C(N)=O)[C@@H](C)CC [PTD6] (Ac-V[Nle]RIS-NH2) — what was its pIC50?
5.52
